System: A549
Test: Antiproliferative activity against human A549 cells by sulforhodamine B assay
Format: functional
Measurement type: GI50

C=C1[C@H]2C[C@@H]3C4N5C[C@]6(C)CCC[C@@]47[C@@H]6[C@@]5(OC(=O)c4ccc([N+](=O)[O-])cc4)C[C@]3([C@@H]1OC(=O)c1ccc([N+](=O)[O-])cc1)[C@H]7[C@H]2OC(=O)c1ccc([N+](=O)[O-])cc1    > 20 µM
CCN1C[C@]2(COC)CC[C@H](OC)[C@]34C1C([C@H](OC)[C@H]23)[C@]1(OC(C)=O)[C@H]2[C@@H](OC(=O)c3ccccc3)[C@](O)(C[C@H]24)[C@@H](OC)[C@@H]1O    > 20 µM

====

System: A549
Test: Antiproliferative activity against human A549 cells by sulforhodamine B assay
Assay type: functional
Measurement type: GI50

C=C1[C@H]2C[C@@H]3C4N5C[C@]6(C)CCC[C@@]47[C@@H]6[C@@]5(OC(=O)c4ccc(OC)cc4)C[C@]3([C@@H]1OC(=O)c1ccc(OC)cc1)[C@H]7[C@H]2O    > 20 µM
C=C1[C@H]2C[C@@H]3C4N5C[C@]6(C)CCC[C@@]47[C@@H]6[C@@]5(O)C[C@]3([C@@H]1OC(=O)c1ccccc1)[C@H]7[C@H]2OC(=O)c1ccccc1    8.8 µM
CCN1C[C@]2(COC)CC[C@H](O)[C@]34C1[C@@](O)([C@@H](OC)[C@H]23)[C@@]1(O)C[C@H](OC)[C@H]2C[C@@H]4[C@@H]1[C@H]2OC(C)=O    > 20 µM
COC[C@]12CC[C@H](O)[C@]34C(NC1)[C@@](O)([C@@H](OC)[C@H]23)[C@@]1(O)C[C@H](OC)[C@H]2C[C@@H]4[C@@H]1[C@H]2OC    > 20 µM
C=C1[C@H]2C[C@@H]3C4N(C(C)=O)C[C@]5(C)CCC[C@@]46[C@@H]5C(=O)C[C@]3([C@@H]1OC(C)=O)[C@H]6[C@H]2OC(C)=O (stereo not given in full)    > 20 µM

====

Test: Antiproliferative activity against multidrug-resistant P-gp expressing human KBVIN cells by sulforhodamine B assay
Assay type: functional
Recorded GI50, one value per entry.
Measurement type: GI50

C=C1[C@H]2C[C@@]3([C@@H]1OC(=O)c1ccccc1)[C@@H](C[C@@H]2OC(=O)c1ccccc1)[C@@]12C4[C@@H]3C[C@@H]1[C@@](C)(CC[C@@H]2OC(=O)c1ccccc1)CN4CC    > 20 µM
CCN1C(=O)[C@]2(COC(=O)c3ccccc3N)CC[C@H](OC)[C@]34C1[C@@](O)([C@@H](OC)[C@H]23)[C@@]1(O)C[C@H](OC)[C@H]2C[C@@H]4[C@@H]1[C@H]2OC    > 20 µM
CCN1C[C@]2(COC)CC[C@H](OC(=O)c3ccc([N+](=O)[O-])cc3)[C@]34C1[C@@](O)([C@@H](OC)[C@H]23)[C@@]1(O)C[C@H](OC)[C@H]2C[C@@H]4[C@@H]1[C@H]2OC(=O)c1ccc([N+](=O)[O-])cc1    > 20 µM
C=C1[C@H]2C[C@H]3C4N5C[C@]6(C)CCC[C@]47[C@H]([C@H]2OC(=O)c2ccc(OC)c(OC)c2)C3(C[C@]5(O)[C@H]67)[C@@H]1O    10 µM
C=C1[C@H]2C[C@@]3([C@@H]1OC(C)=O)[C@@H](C[C@@H]2OC(C)=O)[C@@]12C4[C@@H]3C[C@@H]1[C@@](C)(CC[C@@H]2O)CN4CC    > 20 µM

====

System: A549
Test: Antiproliferative activity against human A549 cells by sulforhodamine B assay
Assay type: functional
Measurement type: GI50

C=C1[C@H]2C[C@@]3([C@@H]1OC(C)=O)[C@@H](C[C@@H]2O)[C@@]12C4[C@@H]3C[C@@H]1[C@@](C)(CC[C@@H]2O)C[N+]4([O-])CC (stereo partly drawn)    > 20 µM
C=C1[C@H]2C[C@H]3C4N5C[C@]6(C)CCC[C@]47[C@H]([C@H]2O)C3(C[C@]5(OC(=O)c2ccc(OC)cc2)[C@H]67)[C@@H]1O    > 20 µM
C=C1[C@H]2C[C@@H]3C4N5C[C@]6(C)CCC[C@@]47[C@@H]6[C@@]5(O)C[C@]3([C@@H]1OC(=O)c1cccnc1)[C@H]7[C@H]2OC(=O)c1cccnc1    > 20 µM

====

Test: Antiproliferative activity against multidrug-resistant P-gp expressing human KBVIN cells by sulforhodamine B assay
Assay type: functional
Measurement type: GI50

COC[C@]12CN(C)C3C4[C@H](OC)[C@H]1[C@@]3([C@@H](OC)C[C@H]2O)[C@@H]1C[C@@]2(O)[C@H](OC(=O)c3ccccc3)[C@@H]1[C@]4(OC)[C@@H](O)[C@@H]2OC    > 20 µM
C=C1[C@H]2C[C@H]3C4N5C[C@]6(C)CCC[C@]47[C@H]([C@H]2O)C3(C[C@]5(OC(=O)c2ccc(OC)cc2)[C@H]67)[C@@H]1O    > 20 µM
C=C1[C@H]2C[C@@H]3C4N5C[C@]6(C)CCC[C@@]47[C@@H]6[C@@]5(O)C[C@]3([C@@H]1O)[C@H]7[C@H]2OC(=O)c1cccc(C(F)(F)F)c1    6.2 µM
C=C1[C@H]2C[C@H]3C4N5C[C@]6(C)CCC[C@]47[C@H]([C@H]2OC(=O)/C=C/c2ccccc2)C3(C[C@]5(O)[C@H]67)[C@@H]1O    6.4 µM
CCN1C[C@]2(COC)[C@H](O)C[C@H](O)[C@]34C1[C@@](O)([C@@H](O)[C@H]23)[C@@]1(O)C[C@H](OC)[C@H]2C[C@@H]4[C@@H]1[C@H]2O    > 20 µM
C=C1[C@H]2C[C@@H]3C4N5C[C@]6(C)CCC[C@@]47[C@@H]6[C@@H]5C[C@]3([C@@H]1O)[C@H]7[C@H]2OC(=O)c1ccc(OC)cc1    > 20 µM
CCN1C[C@]2(COC)CC[C@H](O)[C@]34C1[C@@](O)([C@@H](OC)[C@H]23)[C@@]1(O)C[C@H](OC)[C@H]2C[C@@H]4[C@@H]1[C@H]2OC(C)=O    > 20 µM
CCN1C[C@]2(COC)CC[C@H](O)[C@]34C1[C@@H]([C@H](OC)[C@H]23)[C@@]1(O)C[C@H](OC)[C@H]2C[C@@H]4[C@@H]1[C@H]2OC(=O)c1ccccc1    > 20 µM
C=C1[C@H]2C[C@@H]3C4N5C[C@]6(C)CCC[C@@]47[C@@H]6[C@@]5(O)C[C@]3([C@@H]1O)[C@H]7[C@H]2OC(=O)c1cccnc1    > 20 µM
C=C1[C@H]2C[C@@H]3C4N5C[C@]6(C)CCC[C@@]47[C@@H]6[C@@]5(OC(=O)c4ccc(OC)cc4)C[C@]3([C@@H]1OC(=O)c1ccc(OC)cc1)[C@H]7[C@H]2O    > 20 µM

====

Recorded GI50, one value per entry.
Test system: A549
Test: Antiproliferative activity against human A549 cells by sulforhodamine B assay
Format: functional
Measurement type: GI50

C=C1[C@H]2C[C@@H]3C4N5C[C@]6(C)CCC[C@@]47[C@@H]6[C@@H]5C[C@]3([C@@H]1OC(C)=O)[C@H]7[C@H]2O    > 20 µM
C=C1[C@H]2C[C@@H]3C4N5C[C@]6(C)CCC[C@@]47[C@@H]6[C@@H]5C[C@]3([C@@H]1O)[C@H]7[C@H]2OC(=O)c1ccc([N+](=O)[O-])cc1    10 µM
C=C1[C@H]2C[C@@H]3C4N5C[C@]6(C)CCC[C@@]47[C@@H]6[C@@H]5C[C@]3([C@@H]1O)[C@H]7[C@H]2OC(=O)c1ccc(OC(F)(F)F)cc1    10 µM
CCN1C[C@@]2(COC)[C@H]3[C@@H](OC)C=C4[C@H]5[C@@H](OC(=O)c6ccc(OC)cc6)[C@](O)(C[C@H]5[C@@]35C1O[C@@H]2C[C@@H]5OC)[C@@H](OC)[C@@H]4O    > 20 µM
C=C1[C@H]2C[C@H]3C4N(Cc5ccccc5)C[C@]5(C)CCC[C@]46[C@H]([C@H]2O)C3(CC(=O)[C@H]56)[C@@H]1O (stereo not given in full)    > 20 µM

====

Recorded GI50, one value per entry.
Test: Antiproliferative activity against multidrug-resistant P-gp expressing human KBVIN cells by sulforhodamine B assay
Assay type: functional
Measurement type: GI50

C=C1[C@H]2C[C@@H]3C4N5C[C@]6(C)CCC[C@@]47[C@@H]6[C@@]5(O)C[C@]3([C@@H]1OC(=O)CC)[C@H]7[C@H]2O    > 20 µM
C=C1[C@H]2C[C@@H]3C4N5C[C@]6(C)CCC[C@@]47[C@@H]6[C@@H]5C[C@]3([C@@H]1OC(=O)/C=C/c1cccc(C(F)(F)F)c1)[C@H]7[C@H]2OC(=O)/C=C/c1cccc(C(F)(F)F)c1    3.1 µM
C=C1[C@H]2C[C@@H]3C4N5C[C@]6(C)CCC[C@@]47[C@@H]6[C@@]5(O)C[C@]3([C@@H]1OC(C)=O)[C@H]7[C@H]2O    > 20 µM
